Values were extracted from ChEMBL document CHEMBL5104195.

# METHOD DESCRIPTION: in vivo
# CONDITION INFO: ICR, mouse, po, 50 mg/kg

{"columns": ["CPD SMILES", "AUC at 24 h [ng·h/mL]"],
 "data": [
  ["Cc1nc(N[C@H](C)c2cccc(C(F)F)c2F)c2cc3c(cc2n1)OCC[C@H]1CN(C(=O)c2cccnc2)CCN31", 3180],
  ["Cc1nc(N[C@H](C)c2cccc(C(F)F)c2F)c2cc3c(cc2n1)OCC[C@H]1CN(c2ccnn2C)CCN31", 48800],
  ["Cc1nc(N[C@H](C)c2cccc(C(F)F)c2F)c2cc3c(cc2n1)OCC[C@H]1CN(C)CCN31", 3250],
  ["Cc1nc(N[C@H](C)c2cccc(C(F)F)c2F)c2cc3c(cc2n1)OCC[C@H]1CN(C(=O)C2COC2)CCN31", 1610],
  ["COCCN1CCN2c3cc4c(N[C@H](C)c5cccc(C(F)F)c5F)nc(C)nc4cc3OCC[C@H]2C1", 5420],
  ["Cc1nc(N[C@H](C)c2cccc(C(F)F)c2F)c2cc3c(cc2n1)OCC[C@H]1CN(C(=O)[C@@H]2CCOC2)CCN31", 7490],
  ["Cc1nc(N[C@H](C)c2cccc(C(F)F)c2F)c2cc3c(cc2n1)OCC[C@H]1CN(CC2COC2)CCN31", 10700],
  ["Cc1nc(N[C@H](C)c2cccc(C(F)F)c2F)c2cc3c(cc2n1)OCC[C@H]1CN(CC(F)(F)F)CCN31", 19900]
]}

* * *

# METHOD DESCRIPTION: in vivo
# CONDITION INFO: ICR, mouse, po, 50 mg/kg
Reported Cmax at 24 h values for a set of compounds

{"columns": ["CPD SMILES", "Cmax at 24 h [ng/mL]"],
 "data": [
  ["Cc1nc(N[C@H](C)c2cccc(C(F)F)c2F)c2cc3c(cc2n1)OCC[C@H]1CN(CC(F)(F)F)CCN31", 2260],
  ["Cc1nc(N[C@H](C)c2cccc(C(F)F)c2F)c2cc3c(cc2n1)OCC[C@H]1CN(c2ccnn2C)CCN31", 4690],
  ["Cc1nc(N[C@H](C)c2cccc(C(F)F)c2F)c2cc3c(cc2n1)OCC[C@H]1CN(C(=O)[C@@H]2CCOC2)CCN31", 1450],
  ["Cc1nc(N[C@H](C)c2cccc(C(F)F)c2F)c2cc3c(cc2n1)OCC[C@H]1CN(C)CCN31", 191],
  ["COCCN1CCN2c3cc4c(N[C@H](C)c5cccc(C(F)F)c5F)nc(C)nc4cc3OCC[C@H]2C1", 433],
  ["Cc1nc(N[C@H](C)c2cccc(C(F)F)c2F)c2cc3c(cc2n1)OCC[C@H]1CN(C(=O)c2cccnc2)CCN31", 1580],
  ["Cc1nc(N[C@H](C)c2cccc(C(F)F)c2F)c2cc3c(cc2n1)OCC[C@H]1CN(C(=O)C2COC2)CCN31", 885],
  ["Cc1nc(N[C@H](C)c2cccc(C(F)F)c2F)c2cc3c(cc2n1)OCC[C@H]1CN(CC2COC2)CCN31", 645]
]}

* * *

Reported fraction unbound at 1 h, 2 µM values for a set of compounds
# METHOD DESCRIPTION: Plasma protein binding in dog at 2 uM preincubated for 1 hr by balanced dialysis based LC-MS/MS analysis
OBSERVABLE: fraction unbound at 1 h, 2 µM

{"columns": ["CPD SMILES", "OBSERVABLE", "RECORDED VALUE"],
 "data": [
  ["Cc1nc(N[C@H](C)c2cccc(C(F)F)c2F)c2cc3c(cc2n1)OCC[C@H]1CN(c2ccnn2C)CCN31", "fraction unbound at 1 h, 2 µM", 0.01],
  ["Cc1nc(N[C@H](C)c2cccc(C(F)F)c2F)c2cc3c(cc2n1)OCC[C@H]1CN(C(=O)[C@@H]2CCOC2)CCN31", "fraction unbound at 1 h, 2 µM", 0.001],
  ["Cc1nc(N[C@H](C)c2cccc(C(F)F)c2F)c2cc3c(cc2n1)OCC[C@H]1CN(CC(F)(F)F)CCN31", "fraction unbound at 1 h, 2 µM", 0.002]
]}

* * *

# METHOD DESCRIPTION: Apparent permeability across basolateral side to apical side in dog MDCKII-MDR1 cells
# CONDITION INFO: MDCK-MDR1
OBSERVABLE: Papp B→A (nm/s)

{"columns": ["CPD SMILES", "OBSERVABLE", "RECORDED VALUE"],
 "data": [
  ["Cc1nc(N[C@H](C)c2cccc(C(F)F)c2F)c2cc3c(cc2n1)OCC[C@H]1CN(CC(F)(F)F)CCN31", "Papp B→A", 7.8]
]}

* * *

# CONDITION INFO: rat, in vivo, po, 10 mg/kg, 24 h

{"columns": ["CPD SMILES", "Cmax, ng/mL"],
 "data": [
  ["Cc1nc(N[C@H](C)c2cccc(C(F)F)c2F)c2cc3c(cc2n1)OCC[C@H]1CN(CC(F)(F)F)CCN31", 109]
]}

* * *

# METHOD DESCRIPTION: in vitro
# CONDITION INFO: rhesus monkey, liver microsomes

{"columns": ["CPD SMILES", "U", "CLint scaled at 1 h, 1 µM"],
 "data": [
  ["Cc1nc(N[C@H](C)c2cccc(C(F)F)c2F)c2cc3c(cc2n1)OCC[C@H]1CN(CC(F)(F)F)CCN31", "mL/min/kg", 396]
]}

* * *

# TARGET UNDER TEST: SOS1-KRAS (Homo sapiens, UniProt Q07889)
# Sequence (Q07889 whole entry, looked up, stated change not applied, the tested form may be a part): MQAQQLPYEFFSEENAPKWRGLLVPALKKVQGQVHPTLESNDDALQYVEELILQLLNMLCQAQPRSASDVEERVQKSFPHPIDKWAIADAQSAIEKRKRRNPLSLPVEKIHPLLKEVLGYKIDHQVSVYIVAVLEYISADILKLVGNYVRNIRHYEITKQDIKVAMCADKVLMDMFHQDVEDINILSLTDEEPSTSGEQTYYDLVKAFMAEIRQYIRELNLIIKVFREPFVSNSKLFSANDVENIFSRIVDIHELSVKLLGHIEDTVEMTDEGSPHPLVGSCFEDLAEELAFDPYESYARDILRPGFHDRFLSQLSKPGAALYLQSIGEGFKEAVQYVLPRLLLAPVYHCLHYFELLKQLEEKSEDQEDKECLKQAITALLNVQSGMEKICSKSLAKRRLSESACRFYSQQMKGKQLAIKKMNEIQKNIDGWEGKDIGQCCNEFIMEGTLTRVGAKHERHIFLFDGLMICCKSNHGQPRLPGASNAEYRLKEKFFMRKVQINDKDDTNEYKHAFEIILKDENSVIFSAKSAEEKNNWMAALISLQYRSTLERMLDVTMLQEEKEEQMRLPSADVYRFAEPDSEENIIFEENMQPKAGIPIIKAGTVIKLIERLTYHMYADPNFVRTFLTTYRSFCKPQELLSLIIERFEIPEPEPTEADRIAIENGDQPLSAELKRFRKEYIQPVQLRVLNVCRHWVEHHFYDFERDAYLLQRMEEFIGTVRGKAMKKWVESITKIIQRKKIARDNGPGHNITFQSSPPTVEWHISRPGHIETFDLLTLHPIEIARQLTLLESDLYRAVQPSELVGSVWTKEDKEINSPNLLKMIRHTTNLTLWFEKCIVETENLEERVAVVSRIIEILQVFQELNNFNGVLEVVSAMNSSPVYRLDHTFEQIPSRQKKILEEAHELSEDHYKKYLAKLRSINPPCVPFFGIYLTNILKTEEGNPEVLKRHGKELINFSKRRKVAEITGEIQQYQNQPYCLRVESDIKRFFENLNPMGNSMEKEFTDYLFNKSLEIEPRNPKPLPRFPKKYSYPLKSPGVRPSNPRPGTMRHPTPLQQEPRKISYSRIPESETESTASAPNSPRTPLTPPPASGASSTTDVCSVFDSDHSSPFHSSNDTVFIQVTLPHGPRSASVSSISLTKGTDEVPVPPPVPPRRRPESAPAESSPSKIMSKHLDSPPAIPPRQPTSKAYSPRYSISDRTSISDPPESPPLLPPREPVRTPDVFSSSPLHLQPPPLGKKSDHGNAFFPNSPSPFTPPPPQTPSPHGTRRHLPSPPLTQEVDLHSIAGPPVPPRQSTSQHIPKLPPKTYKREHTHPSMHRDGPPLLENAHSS
# METHOD DESCRIPTION: Inhibition of N-terminal His6-tagged human recombinant SOS1(564 to 1049 residues)/human recombinant KRAS G12C mutant incubated for 60 mins by HTRF assay

{"columns": ["CPD SMILES", "U", "IC50"],
 "data": [
  ["Cc1nc(N[C@H](C)c2cccc(C(F)F)c2F)c2cc3c(cc2n1)OC[C@H]1CN(C(=O)C2(C#N)CC2)CCN31", "nM", 8.4]
]}

* * *

Reported MRT at 24 h values for a set of molecules
# METHOD DESCRIPTION: MRT in ICR mouse at 50 mg/kg, po measured up to 24 hrs by LC-MS/MS analysis
# CONDITION INFO: in vivo
OBSERVABLE: MRT at 24 h (h)

{"columns": ["CPD SMILES", "RECORDED VALUE"],
 "data": [
  ["Cc1nc(N[C@H](C)c2cccc(C(F)F)c2F)c2cc3c(cc2n1)OCC[C@H]1CN(CC2COC2)CCN31", 7.64],
  ["Cc1nc(N[C@H](C)c2cccc(C(F)F)c2F)c2cc3c(cc2n1)OCC[C@H]1CN(C(=O)C2COC2)CCN31", 1.7],
  ["Cc1nc(N[C@H](C)c2cccc(C(F)F)c2F)c2cc3c(cc2n1)OCC[C@H]1CN(C(=O)c2cccnc2)CCN31", 1.78],
  ["Cc1nc(N[C@H](C)c2cccc(C(F)F)c2F)c2cc3c(cc2n1)OCC[C@H]1CN(C)CCN31", 9.58]
]}

* * *

# TARGET UNDER TEST: Son of sevenless homolog 1 (Homo sapiens)
# Sequence (Q07889 whole entry): as the sequence (Q07889 whole entry, looked up, stated change not applied, the tested form may be a part) above
# METHOD DESCRIPTION: Inhibition of SOS1 in human DLD-1 cells assessed as reduction in ERK phosphorylation incubated for 1 hr by fluorescence assay
# Format: cell-based
Reported IC50 values for a set of compounds

{"columns": ["CPD SMILES", "IC50"],
 "data": [
  ["Cc1nc(N[C@H](C)c2cccc(C(F)F)c2F)c2cc3c(cc2n1)OCC[C@H]1CN(CC#N)CCN31", "70 nM"],
  ["Cc1nc(N[C@H](C)c2cccc(C(F)F)c2F)c2cc3c(cc2n1)OC[C@H]1CN(C(=O)C2(C#N)CC2)CCN31", "13 nM"]
]}

* * *

# TARGET UNDER TEST: Cytochrome P450 2C9 (Homo sapiens)
# Sequence (P11712 whole entry): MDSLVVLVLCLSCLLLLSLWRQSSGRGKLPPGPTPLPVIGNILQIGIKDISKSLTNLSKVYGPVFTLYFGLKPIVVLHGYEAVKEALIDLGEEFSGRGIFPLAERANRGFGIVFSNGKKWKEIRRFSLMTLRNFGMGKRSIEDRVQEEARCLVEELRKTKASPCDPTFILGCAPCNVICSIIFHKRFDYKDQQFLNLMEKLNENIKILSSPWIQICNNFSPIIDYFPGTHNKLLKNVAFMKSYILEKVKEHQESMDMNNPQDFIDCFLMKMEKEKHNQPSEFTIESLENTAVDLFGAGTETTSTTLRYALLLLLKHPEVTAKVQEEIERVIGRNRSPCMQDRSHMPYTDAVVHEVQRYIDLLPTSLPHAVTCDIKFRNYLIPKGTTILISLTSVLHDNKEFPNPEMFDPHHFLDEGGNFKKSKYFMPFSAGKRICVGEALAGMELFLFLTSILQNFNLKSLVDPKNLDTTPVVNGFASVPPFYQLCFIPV
# METHOD DESCRIPTION: Time-dependent inhibition of CYP2C9 (unknown origin) at 2 ul pre-incubated for 30 mins in presence or absence of NADPH incubated for 10 mins by LC/MS analysis
pIC50: −log10 of the molar value.
OBSERVABLE: pIC50

{"columns": ["CPD SMILES", "OBSERVABLE", "RECORDED VALUE"],
 "data": [
  ["Cc1nc(N[C@H](C)c2cccc(C(F)F)c2F)c2cc3c(cc2n1)OCC[C@H]1CN(CC(F)(F)F)CCN31", "pIC50", 4.84]
]}

* * *

# METHOD DESCRIPTION: Apparent permeability across apical to basolateral side in dog MDCKII-MDR1 cells
# CONDITION INFO: MDCK-MDR1

{"columns": ["CPD SMILES", "Papp A→B (×10⁻⁶ cm/s)"],
 "data": [
  ["Cc1nc(N[C@H](C)c2cccc(C(F)F)c2F)c2cc3c(cc2n1)OCC[C@H]1CN(CC(F)(F)F)CCN31", 0.26]
]}
